Data origin, for the record: PubChem BioAssay

METHOD SUMMARY: modulators of S6 phosphorylation in cells, primary screen, cell-based, A549, cytoblot, luminescence, serum-stimulated (AID 1158);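 also: serum-stimulated A549 lung adenocarcinoma cells; signal is phosphorylated S6 detected by cytoblot immunostaining with HRP secondary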
MEASUREMENT PARAMETERS: A549 phospho-S6 cytoblot, 5 h, higher = more signal
READOUT TYPE: z-score

| COMPOUND | RECORDED MEASUREMENT |
| --- | --- |
| CCCC[C@@H](O)C1=C(C)C[C@H]2C(=O)N(C)C(=O)[C@H]2[C@H]1CO | 0.8 |
| CC(C)C(=C=CC[C@H](O)c1ccc(OCCO)cc1)C[C@H](O)COCc1ccccc1 | -0.474 |
| CCN(CC)c1ccc(N2CC=CC34O[C@@H]5C=CCOC(=O)[C@@H]5[C@H]3C(=O)N(C(C)CO)[C@@H]4C2=O)cc1 (stereo not given in full) | -0.153 |
| Cc1ccc(S[C@]2(C(=O)NC3CC3)CC(=O)N(Cc3ccccc3C(F)(F)F)[C@@H]2c2ccc(CO)cc2I)cc1 | 1.8 |
| C#CCOc1ccc(C[C@H]2C(=O)O[C@H](Cc3ccccc3)[C@H](/C=C/C3CC3)N2CC#C)cc1 | 0.242 |

* * *

METHOD SUMMARY: small-molecule binders of probe aLefty1, primary screen, biochemical, small-molecule microarray, 635/667 nm fluorescence (AID 1153);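 also: score merges spot fluorescence with signal-to-noise ratio from the scanned slide images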
MEASUREMENT PARAMETERS: higher = more signal

| COMPOUND STRUCTURE | composite z-score |
| --- | --- |
| O=C(O)[C@H]1C[C@H]2C(=O)NCC(=O)N2[C@H]1c1cccc(OCCO)c1 | 1.24 |
| C=CCNC(=O)[C@@H]1[C@H]2C(=O)O[C@H](c3ccccc3)[C@H](c3ccccc3)N2[C@H](c2ccc(O)cc2)[C@@]12C(=O)N(C(=O)OCCOC)c1ccc(C#Cc3ccc(OC)cc3)cc12 | -0.0222 |
| Cc1ccc(S[C@]2(C(=O)NCC(C)C)CC(=O)N(C(C)C)[C@@H]2c2ccc(CO)cc2)cc1 | -0.191 |

* * *

METHOD SUMMARY: CREB reporter modulators without forskolin, primary screen, cell-based, PC12, CRE-LacZ reporter, unstimulated (AID 1145)
MEASUREMENT PARAMETERS: no forskolin, luminescence, 4.5 h, higher = more signal, called active from +8 up or from −8 down
Classification field: enter True for z-score values not below 0.2, False for values below it.

| COMPOUND | CLASS |
| --- | --- |
| CCCNC(=O)[C@@H]1c2ccccc2C(=O)N(Cc2cc(C(F)(F)F)cc(C(F)(F)F)c2)[C@H]1c1ccc(CO)cc1 | True |
| CN1C=C(C(=O)OCCS(C)(=O)=O)C(C(=O)OCCS(C)(=O)=O)=CC(CCCO)=CC1c1cccs1 (stereo not drawn) | True |
| NC(=O)N1C(=O)C2C(C1=O)C1C=C(c3ccc(CO)cc3)C2C(C2CC2)N1Cc1cc2c(cc1Br)OCO2 (stereo not drawn) | True |
| CCN(CC)c1ccc(N2CC=CC34O[C@@H]5C=CCOC(=O)[C@@H]5[C@H]3C(=O)N(C(CO)C(C)C)[C@@H]4C2=O)cc1 (stereo partly drawn) | True |
| CCOC(=O)C[C@H]1[C@H](OC(=O)c2cc3ccccc3oc2=O)[C@@H](NC(=O)c2ccccc2)c2cc(OCCCO)ccc2N1C(=O)Cc1ccc(OC)cc1 | True |
| CC(C)C[C@@H]1NC(=O)[C@H]2C[C@@H](C(=O)NCCCC[N+](C)(C)C)[C@@H](c3cccc(OCCO)c3)N2C1=O | False |
| C=C[C@H](OC)[C@@H](OC(=O)Nc1ccc(OC)cc1)c1ccc(OC)c(O)c1 | True |
| CO[C@H]1O[C@H](CO)[C@@H](OC(=O)CCc2ccccc2)[C@@H]2OC(=O)[C@H](Cc3ccccc3)C/C=C/C[C@@H](Cc3ccccc3)C(=O)O[C@@H]12 | False |
| C=C(COC)C(=O)CC[C@H](OC(=O)c1ccccc1-c1ccccc1C(=O)O)c1ccccc1OCCO | True |
| C=C(COC)/C(=C/C[C@H](OC(C)=O)c1ccc(CO)o1)c1cnc2ccccc2c1 | True |
| C[N+](C)(C)CCCC[C@@H]1NC(=O)[C@@H]2C[C@H](C(=O)NCCCCCNC(=O)CS)[C@H](c3ccc(O)cc3)N2C1=O | False |
| COC(=O)C1=CC(c2ccc(CO)cc2)=CC(c2cccs2)N(C)C=C1C(=O)OC (stereo not drawn) | False |

* * *

METHOD SUMMARY: basal HepG2 mitochondrial membrane potential changes, profiling panel, cell-based, JC-1 fluorescence, 24 h, 100 nL compound (AID 1167); also: test concentration not given here
MEASUREMENT PARAMETERS: higher = more signal
# z-score per entry

| MOLECULE | z-score |
| --- | --- |
| CC(C)CCC[C@@H](C)[C@H]1CC[C@@]2(C)C3=C(CC[C@]12C)[C@@]1(C)CC[C@H](OC(=O)CCl)C(C)(C)C1CC3 (stereo partly drawn) | 1.58 |
| C=CCN1C(=O)[C@]2(O[C@H](CCn3cc([C@H](O)c4ccccc4)nn3)[C@@H]([Si](C)(C)c3ccc(OC)cc3)[C@@H]2C)c2cc(N3CCOC3=O)ccc21 | 3.15 |
| C=C(COC)/C(=C/C[C@H](OC(C)=O)c1cccc(OCCO)c1)c1cc(C(=O)OC)ccc1OC | 0.616 |
| CC(C)N1CC=CC23O[C@@H]4/C=C\CCCOC(=O)C4[C@H]2C(=O)N(CCCO)[C@@H]3C1=O (stereo partly drawn) | 0.795 |
| CC(C)(C)OC(=O)CC[C@@]1(C(=O)NCc2ccccc2)N=C(c2ccc(OCCCO)cc2)O[C@@H]1c1ccccc1CN=[N+]=[N-] | 2.13 |
| C=C(CCCC)/C(=C/C[C@H](OC(=O)c1ccncc1)c1ccc(CO)o1)c1cnc2ccccc2c1 | 0.265 |
| CC(CO)N1C(=O)[C@@H]2C3C(=O)OCCC/C=C\[C@H]3OC23C=CCN(Cc2ccccc2)C(=O)[C@@H]13 (stereo partly drawn) | 0.797 |
| C=C(/C(=C/C[C@H](OC(C)=O)c1cccc(OCCO)c1)c1cc(C(=O)OC)ccc1OC)C(C)C | 1.66 |

* * *

TARGET SYSTEM: Follistatin (Homo sapiens) (UniProt P19883)
Sequence (P19883 whole entry, looked up): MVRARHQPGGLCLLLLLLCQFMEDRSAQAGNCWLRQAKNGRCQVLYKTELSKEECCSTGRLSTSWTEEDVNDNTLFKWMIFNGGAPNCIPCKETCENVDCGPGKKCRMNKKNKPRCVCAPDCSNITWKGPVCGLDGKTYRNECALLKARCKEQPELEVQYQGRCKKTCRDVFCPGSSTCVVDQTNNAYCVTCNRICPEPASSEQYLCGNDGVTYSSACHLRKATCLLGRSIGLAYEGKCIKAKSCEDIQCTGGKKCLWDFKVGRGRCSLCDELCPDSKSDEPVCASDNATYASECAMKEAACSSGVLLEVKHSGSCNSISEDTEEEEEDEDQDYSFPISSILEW
METHOD SUMMARY: follistatin binders on small-molecule microarrays, primary screen, biochemical, small-molecule microarray, 635/667 nm fluorescence (AID 1132)
MEASUREMENT PARAMETERS: FST binding, 635 nm fluorescence, higher = more signal
Classification field: enter Yes for composite z-score values not below 0.1, No for values below it.

| COMPOUND | CLASS |
| --- | --- |
| C=C(COC)/C(=C/C[C@H](OC(C)=O)c1cccc(OCCO)c1)c1cc(C(=O)OC)ccc1OC | Yes |
| C=CCN1C(=O)[C@@]2(O[C@@H](CCO)[C@H]([Si](C)(C)c3ccc(OC)cc3)[C@H]2C)c2cc(N(C=O)c3ccccc3)ccc21 | Yes |
| C[N+](C)(C)CCCC[C@@H]1NC(=O)[C@H]2C[C@@H](C(=O)NCCCCCN)[C@@H](c3cccc(OCCO)c3)N2C1=O | Yes |
| O=C(NO)[C@]1(Cc2ccccc2)N=C(c2ccc(OCCCO)cc2)O[C@@H]1c1ccccc1 | No |
| C=C(CCCC)/C(=C/C[C@@H](OC(=O)c1ccncc1)c1ccc(OCCO)cc1)c1cnc2ccccc2c1 | Yes |
| [N-]=[N+]=Nc1ccccc1[C@H]1OC(c2ccc(OCCCO)cc2)=N[C@@]1(Cc1ccccc1)C(N)=O | Yes |
| C=CCC(OC(C)=O)[C@@H]1[C@@H](N(Cc2cccc3ccccc23)C(=O)Cc2ccc(OC)cc2)c2cc(OCCCO)ccc2N1C(=O)Cc1ccc(OC)cc1 (some centres not stated) | Yes |
| COc1c(C)cc(-c2cc3c(c(CCc4ccccc4)n2)[Si](C(C)C)(C(C)C)OC3)cc1C | Yes |
| COc1ccc([Si](C)(C)[C@H]2[C@H](CC(=O)N(CCO)Cc3ccccc3)O[C@@]3(C(=O)N(Cc4ccc(N5CCC5=O)cc4)c4ccccc43)[C@@H]2C)cc1 | Yes |
| COC(=O)C1=CC(c2ccc(CO)cc2)=CC(C2CC2)N(C)C=C1C(=O)OC (configuration not stated) | No |
| C=CC[C@@]1(C(=O)NCc2ccccc2)N=C(c2ccc(OCCCO)cc2)O[C@@H]1c1ccccc1 | No |
| COCCOC(=O)N1C(=O)[C@@]2(c3cc(C#CC4(O)CCCCCC4)ccc31)[C@H](c1ccc(O)cc1)N1[C@H](c3ccccc3)[C@H](c3ccccc3)OC(=O)[C@H]1[C@@H]2C(N)=O | Yes |
| CC(C)N1CC=CC23O[C@@H]4/C=C\CCCOC(=O)C4[C@H]2C(=O)N(CCCO)[C@@H]3C1=O (some centres not stated) | No |
| CC(C)C[C@@H]1NC(=O)[C@@]23C(=O)N[C@@H](Cc4ccccc4)C2[C@H](C)[C@@]2(C)O[C@H]2C3/C=C/CC/C=C/CNC(=O)[C@@H](C)NC1=O (some centres not stated) | Yes |
| CCCCCCC#C[Si](O[C@H](c1ccccc1)c1cn(Cc2ccccc2)nn1)(C(C)C)C(C)C | Yes |
| COC(=O)c1c2oc(c1C(=O)OC)C(=O)N[C@@H](C(C)C)Cn1nncc1C1(CCCCC1)NC(=O)N[C@H](CO)CC2 | No |
| COC(=O)C(CC#Cc1ccc2c(c1)[C@]1(C(=O)N2)[C@H](c2ccccc2OCCO)N2[C@H](c3ccccc3)[C@H](c3ccccc3)OC(=O)[C@H]2[C@@H]1C(=O)N1CCCCCCC1)C(=O)OC | Yes |
| COc1ccc([Si](C)(C)[C@@H]2[C@@H](CC(=O)N3CCC[C@H]3CO)O[C@]3(C(=O)N(Cc4ccc(I)cc4)c4ccccc43)[C@H]2C)cc1 | Yes |
| CC(C)C(CO)N1C(=O)[C@@H]2[C@H]3C(=O)OCC=C[C@H]3OC23C=CCN(Cc2ccccc2)C(=O)[C@@H]13 (some centres not stated) | No |
| C=CCNC(=O)[C@@H]1[C@H]2C(=O)O[C@H](c3ccccc3)[C@H](c3ccccc3)N2[C@H](c2ccc(O)cc2)[C@@]12C(=O)Nc1ccc(C#Cc3ccc(OC)cc3)cc12 | Yes |
| O=C(O)[C@H]1C[C@H]2C(=O)N[C@@H](Cc3ccccc3)C(=O)N2[C@H]1c1ccc(O)cc1 | Yes |
| C=CC[C@@H](OC(=O)Nc1ccc(SC)cc1)c1ccc(OCCO)cc1 | No |
